Value source: patent US20240182536A1

# experimental_target: T1, IL-18 receptor alpha (UniProt Q13478 19-329, limits assumed)
# T1 construct: also called IL-18 Rα; IL-18Rα
# T1 sequence (looked up): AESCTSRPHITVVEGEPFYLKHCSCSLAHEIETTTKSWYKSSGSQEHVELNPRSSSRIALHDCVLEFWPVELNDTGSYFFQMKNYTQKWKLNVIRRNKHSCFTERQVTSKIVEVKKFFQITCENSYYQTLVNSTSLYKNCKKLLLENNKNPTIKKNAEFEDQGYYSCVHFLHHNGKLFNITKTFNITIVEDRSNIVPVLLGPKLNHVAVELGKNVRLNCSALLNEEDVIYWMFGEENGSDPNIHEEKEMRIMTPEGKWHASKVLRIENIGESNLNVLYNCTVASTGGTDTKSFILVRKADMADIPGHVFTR
# protocol_text: Octet BLI
recorded_endpoint: log10 Kd (log10 of the value in nM)
Scale type: logarithmic (base 10). Underlying Kd unit: nM.

Some solved cases for reference:
binder	endpoint_result
human IL-18 variant G3T/E6K/K53A/M60K (ligand) YFTKLKSKLSVIRNLNDQVLFIDQGNRPLFEDMTDSDMRDNAPRTIFIISMYADSQPRGKAVTISVKSEKISTLSSENKIISFKEMNPPDNIKDTKSDIIFFQRSVPGHDNKMQFESSSYEGYFLASEKERDLFKLILKKEDELGDRSIMFTVQNED	2.35
human IL-18 variant G3T/K53A/M60K (ligand) YFTKLESKLSVIRNLNDQVLFIDQGNRPLFEDMTDSDMRDNAPRTIFIISMYADSQPRGKAVTISVKSEKISTLSSENKIISFKEMNPPDNIKDTKSDIIFFQRSVPGHDNKMQFESSSYEGYFLASEKERDLFKLILKKEDELGDRSIMFTVQNED	3.35
human IL-18 variant G3T/K53S/M60K (ligand) YFTKLESKLSVIRNLNDQVLFIDQGNRPLFEDMTDSDMRDNAPRTIFIISMYSDSQPRGKAVTISVKSEKISTLSSENKIISFKEMNPPDNIKDTKSDIIFFQRSVPGHDNKMQFESSSYEGYFLASEKERDLFKLILKKEDELGDRSIMFTVQNED	3.70
human IL-18 variant G3T/E6K/K53S/M60K (ligand) YFTKLKSKLSVIRNLNDQVLFIDQGNRPLFEDMTDSDMRDNAPRTIFIISMYSDSQPRGKAVTISVKSEKISTLSSENKIISFKEMNPPDNIKDTKSDIIFFQRSVPGHDNKMQFESSSYEGYFLASEKERDLFKLILKKEDELGDRSIMFTVQNED	2.73
human IL-18 variant G3V/K53A/M60K (ligand) YFVKLESKLSVIRNLNDQVLFIDQGNRPLFEDMTDSDMRDNAPRTIFIISMYADSQPRGKAVTISVKSEKISTLSSENKIISFKEMNPPDNIKDTKSDIIFFQRSVPGHDNKMQFESSSYEGYFLASEKERDLFKLILKKEDELGDRSIMFTVQNED	2.69

For every item in the list below, what is its measured log10 Kd?
1. human IL-18 variant G3V/E6K/K53S/M60K (ligand) YFVKLKSKLSVIRNLNDQVLFIDQGNRPLFEDMTDSDMRDNAPRTIFIISMYSDSQPRGKAVTISVKSEKISTLSSENKIISFKEMNPPDNIKDTKSDIIFFQRSVPGHDNKMQFESSSYEGYFLASEKERDLFKLILKKEDELGDRSIMFTVQNED
2. Comparator 1 (ligand, Human IL-18 variant M51K, K53S, Q56L, P57A, M60L, S105D, D110S, N111R; also called IL-18 Comparator 1) YFGKLESKLSVIRNLNDQVLFIDQGNRPLFEDMTDSDCRDNAPRTIFIISKYSDSLARGLAVTISVKCEKISTLSCENKIISFKEMNPPDNIKDTKSDIIFFQRDVPGHSRKMQFESSSYEGYFLACEKERDLFKLILKKEDELGDRSIMFTVQNED
3. human IL-18 variant G3V/K53S/M60K (ligand) YFVKLESKLSVIRNLNDQVLFIDQGNRPLFEDMTDSDMRDNAPRTIFIISMYSDSQPRGKAVTISVKSEKISTLSSENKIISFKEMNPPDNIKDTKSDIIFFQRSVPGHDNKMQFESSSYEGYFLASEKERDLFKLILKKEDELGDRSIMFTVQNED
4. human IL-18 variant G3V/E6K/K53A/M60K (ligand) YFVKLKSKLSVIRNLNDQVLFIDQGNRPLFEDMTDSDMRDNAPRTIFIISMYADSQPRGKAVTISVKSEKISTLSSENKIISFKEMNPPDNIKDTKSDIIFFQRSVPGHDNKMQFESSSYEGYFLASEKERDLFKLILKKEDELGDRSIMFTVQNED

1. 2.51
2. 1.20
3. 3.73
4. 1.91
